The following compounds are shown together with reported growth values.
Tested on: SR leukemia
Assay: NCI-60 one-dose screen, 48 h (100 = growth as untreated, 0 = no growth, -100 = all killed)
Conditions: 10 µM unless noted
This is part of a sample that, as a whole, favours compounds with a hit. Of some 83,000 tested, about 20% had one in any assay. Calls of active or inactive are those of the source. Rule for the calls: active = growth percent below 10; inactive = the rest.

compound | system-name | growth
O=C1/C=C/[C@@H](O)[C@@H]2C[C@@H](O)C[C@H]2/C=C/CCC[C@H](CCc2ccccc2)O1 | SR leukemia | 9.67% (active)
Nc1ncc(-c2ccc3ncnc(Nc4cccc(Cl)c4)c3c2)cn1 | SR leukemia | 33.6% (inactive)
COc1ccc(Nc2ncc(Br)c(NCCCNC(=O)C3CCCC3)n2)cc1 | SR leukemia | 47% (inactive)
COc1ccc(CN2c3ccccc3Sc3ccccc32)cc1F | SR leukemia | 16.9% (inactive)
Nc1ncnc2c1c(-c1cccc(Cl)c1)nn2CC(=O)N1CCOCC1 | SR leukemia | 116% (inactive)
CC(C)C1=NOC(=O)C1=Cc1cn(-c2ccccc2)nc1-c1ccc(F)cc1 | SR leukemia | -17% (active)
Oc1c(Br)cc(Br)c2ccc(Cn3cc(-c4ccc(C(F)(F)F)cc4)nn3)nc12 | SR leukemia | -22.9% (active)
CN1CCN(C(=O)c2ccc(NC(=O)c3cc4c(nn3)NCCN4Cc3cc(Cl)ccc3Cl)cc2)CC1 | SR leukemia | 0.181% (active)
CNc1nnc2n(-c3ccccc3)c(=O)c3cnn(-c4ccccc4)c3n12 | SR leukemia | 65.2% (inactive)
Cc1ccc(-c2nc([P+](c3ccccc3)(c3ccccc3)c3ccccc3)c(S(=O)(=O)c3ccc(C)cc3)o2)cc1 | SR leukemia | -10.9% (active)
COc1cc2oc(-c3cccc(NC(=O)c4ccccc4)c3)cc(=O)c2c(OC)c1OC | SR leukemia | 31.6% (inactive)
c1ccc(Cn2cc3c(c2)-c2oncc2CC3)cc1 | SR leukemia | 39.3% (inactive)
CCCCNC(=O)Oc1ccc(/C(=C(/C)Cc2ccc(OC)cc2)c2ccc(OCCN3CCCC3)cc2)cc1 | SR leukemia | -54.1% (active)
CCOC(=O)c1ccc(NC(=O)c2nc(-c3cc(OC)c(OC)c(OC)c3)n(-c3ccc(Cl)cc3)n2)cc1 | SR leukemia | 92.7% (inactive)
Cc1ccc(C)n1-c1ccccc1-n1c(C)ccc1C | SR leukemia | 93.2% (inactive)
O=C(c1ccccc1)c1ccc(C2CCCCC2)cc1 | SR leukemia | 107% (inactive)
CCN(C)S(=O)(=O)Nc1cccc(Nc2ncnc3cc(NC(=O)CCl)ccc23)c1Cl | SR leukemia | 6.73% (active)
CSc1nnc(-c2cc3c([nH]c4ccccc43)c(-c3cccc(O)c3)n2)n1-c1ccccc1 | SR leukemia | 21.7% (inactive)
COc1ccc(/C=C/C(=O)c2cc3c(N)c(C(=O)Nc4cccc5ccccc45)sc3nc2C)cc1 | SR leukemia | 44.1% (inactive)
CCC(=C(c1ccc(OCCN2CCCCC2)cc1)c1ccc(OCCN2CCCCC2)cc1)c1ccc(Cl)cc1 | SR leukemia | -49% (active)
O=C(Nc1cccc2ccccc12)NC1CC1 | SR leukemia | 109% (inactive)
COc1ccc(NC(=O)c2sc3nc(C)c(C(=O)/C=C/c4ccccc4)cc3c2N)cc1 | SR leukemia | 14.7% (inactive)
Cn1ccc(=O)c(C(=O)Nc2nsc3ccc([N+](=O)[O-])cc23)c1 | SR leukemia | 55.9% (inactive)
CCN(CC)Cc1cc(C=C2C(=O)NC(=S)NC2=O)cc(OC)c1O | SR leukemia | 109% (inactive)
CC(C)(C)[Si](C)(C)OC1[C@@H](CNC(=O)NC(=O)NC(N)=O)O[C@@H](n2cnc3c(NC(=O)Nc4ccccc4)ncnc32)[C@H]1O[Si](C)(C)C(C)(C)C (stereo partly drawn) | SR leukemia | 40.8% (inactive)
CCc1ccccc1-n1c(-c2ccc(OC)cc2)cc(-c2ccc(OC)cc2)c(C#N)c1=O | SR leukemia | 98.4% (inactive)
O=S(=O)(Nc1ccc(F)cc1F)c1ccc(-c2cnc(C3CC3)o2)cc1 | SR leukemia | 10.9% (inactive)
CC(C)=CC(=O)OCC(=O)O[C@@H]1C[C@]2(C(C)C)O[C@@]1(C)[C@@H]1CC[C@@H](C)[C@H]1[C@@H]2OC(=O)/C=C/c1ccccc1 | SR leukemia | 69.2% (inactive)
Cc1cc(N2CCCCC2)cc(C)c1-c1csc(NC(=O)c2ccncc2)n1 | SR leukemia | 37.7% (inactive)
CCNCCNc1cc(-c2ccc(C(F)(F)F)cc2)c(C#N)c2nc3ccccc3n12 | SR leukemia | -47.6% (active)
S=c1sc2c(Cl)nc(-c3cccnc3)nc2n1-c1ccccc1 | SR leukemia | -27.2% (active)
CCCC/C=C/[C@@H]1C[C@H]1CCO | SR leukemia | 100% (inactive)
CC1(C)CC(=O)C2=C(C1)N(c1ccc(OC(F)(F)F)cc1)C(N)=C(C#N)C2c1ccc(Br)cc1F (stereo not drawn) | SR leukemia | 76% (inactive)
CCC1=C[C@@H]2C[C@]3(C(=O)OC)c4[nH]c5ccccc5c4CC[N@+](CC(=O)Nc4cc5c(cc4OC)N(C)[C@H]4[C@@](O)(C(=O)OC)[C@H](OC(C)=O)[C@]6(CC)C=CCN7CC[C@]54[C@@H]76)(C2)[C@H]13 | SR leukemia | 99.4% (inactive)
CCCCNCCCCCNc1cc(OC)cc2cccnc12 | SR leukemia | 71.1% (inactive)
CCOCCNC1=C(Cl)C(=O)c2ccccc2C1=O | SR leukemia | 89.3% (inactive)
Fc1cnccc1C1CC(c2ccc(N3CCNCC3)cc2)=NN1 (stereo not drawn) | SR leukemia | 90.4% (inactive)
CN(c1cc2ncc(=O)[nH]c2cc1NC(N)=NCc1ccc(Cl)cc1)C1CCCCC1 | SR leukemia | -22.7% (active)

* * *

The following compounds are shown together with reported growth values.
Tested on: K-562 leukemia
Assay: NCI-60 one-dose screen, 48 h (100 = growth as untreated, 0 = no growth, -100 = all killed)
Settings: 10 µM unless noted
Compounds without any hit were thinned out: in the full panel of roughly 83,000, 20% have a hit. The source made the active and inactive calls. The calls were made as follows: active = growth percent below 10; inactive = the rest.

query-smiles | growth
CC(C)(C)CC(C)(C)NC(=O)Nc1ncccc1OCc1ccccc1 | 89.3% (inactive)
COc1cc2ncnc(Nc3ccc(S(=O)(=O)Nc4cc(C)on4)cc3)c2cc1OCCCN1CCN(c2ccc(F)cc2)CC1 | 89.8% (inactive)
COCCn1cc(-c2csc(-c3cn(C)c4ccc(Br)cc34)n2)c2cccnc21 | -9.15% (active)
COc1ccc(-c2nn(-c3cccc(Cl)c3)cc2-c2cc(-c3ccc(Br)cc3)nc(N)n2)cc1 | 94.2% (inactive)
CSc1oc(C)nc1[P+](c1ccccc1)(c1ccccc1)c1ccccc1 | 31% (inactive)

* * *

Tested on: MOLT-4 leukemia
Assay: NCI-60 one-dose screen, 48 h (100 = growth as untreated, 0 = no growth, -100 = all killed)
Conditions: 10 µM unless noted
About 83,000 compounds went through this panel and 20% of them were active in at least one assay; those are over-represented in the sample as a whole.

molecule | growth [%]
COc1c(B(O)O)cccc1-c1cc(C)c2c(ccc3[nH]ncc32)n1 | 64.2
COc1ccc(C2=C(Br)C(=O)c3nc(C)ccc3C2=O)cc1 | 41.4
Cc1nc2sc(C(=O)Nc3ccc(Br)cc3)c(N)c2cc1C(O)c1ccccc1 (stereo not given) | 26.2
COc1cc(-c2nc3sccn3c2-c2ccnc(NCCNS(=O)(=O)c3ccccc3)n2)ccc1F | 24.7
Nc1nc2ccc(-c3nc4ccc5[nH]ncc5c4c4c3CCCC4)cc2s1 | 104
CCCCNCCCCCNc1cc(OC)cc2cccnc12 | 100
O=C(N(c1ccccc1)c1ccccc1)n1cc(I)c2nc(Cl)nc(Cl)c21 | 2.48
COc1cc2c(cc1OCCCN1CCN(CCCOc3cc4c(cc3OC)C(=O)N3CCC[C@H]3C=N4)CC1)C=CC(C)(C)O2 | -12.8
CCOC(=O)c1csc(NC(=O)COc2ccc(/C=C3\Oc4ccccc4C3=O)cc2)n1 | 42.2
O=C(Nc1ccccc1)Nc1ncnc2c1ncn2-c1ccc(Cl)cc1 | 84.2

* * *

Test system: HCT-15 colon
Assay: NCI-60 one-dose screen, 48 h
Conditions: 10 µM unless noted
Compounds without any hit were thinned out: in the full panel of roughly 83,000, 20% have a hit. The source made the active and inactive calls. The calls were made as follows: active = growth percent below 10; inactive = the rest.
Outcome codes: True (active), False (inactive)

compound | label-value
C/C(=N\O)c1ccc(Cl)cc1 | False
COc1ccc2c(c1)CC[C@H](O)/C2=C/c1cc(OC)c(OC)c(OC)c1 | False
Cc1nc2sc(C(=O)Nc3cccc4ccccc34)c(N)c2cc1C(O)c1ccccc1 (centres undefined) | False
CCC1=C[C@@H]2C[C@]3(C(=O)OC)c4[nH]c5ccccc5c4CC[N@+](CC(=O)Nc4cc5c(cc4OC)N(C)[C@H]4[C@@](O)(C(=O)OC)[C@H](OC(C)=O)[C@]6(CC)C=CCN7CC[C@]54[C@@H]76)(C2)[C@H]13 | False
S=c1sc2c(Cl)nc(-c3cccnc3)nc2n1-c1ccccc1 | True
CCOC(=O)n1cc(-c2nonc2-c2cn(C(=O)OCC)c3ccc(Br)cc23)c2ccccc21 | False
O=C(CSc1nc2sc3c(c2c(=O)n1-c1ccccc1)CCCCC3)N/N=C/c1cccc([N+](=O)[O-])c1 | False
CCNCCNc1cc(-c2ccc(C(F)(F)F)cc2)c(C#N)c2nc3ccccc3n12 | True
CCOC(=O)C/C(=N\Nc1cc(=O)[nH]c2ccc(Br)cc12)C(=O)OCC | False
